Would you mind telling me the reported melting point of each entry?
Structures can show the parent of a compound that is named as a salt.

Some compounds with recorded melting point:
[
  {
    "compound": "CCOc1cccc2c1O[C@@H](CN1C3CCC1CC(O)(c1csc4ccccc14)C3)CO2 (some centres unmarked)",
    "melting point": "111 to 114 °C"
  },
  {
    "compound": "CCOc1cccc2c1O[C@@H](CN1C3CCC1CC(O)(c1cccc(C(F)(F)F)c1)C3)CO2 (some centres unmarked)",
    "melting point": "86 to 90 °C"
  },
  {
    "compound": "COc1cccc2c1O[C@@H](CN1C3CCC1CC(O)(c1csc4ccccc14)C3)CO2 (some centres unmarked)",
    "melting point": "162 to 164 °C"
  },
  {
    "compound": "COc1cccc2c1O[C@@H](CN1C3CCC1CC(O)(c1ccccn1)C3)CO2 (some centres unmarked)",
    "melting point": "107 to 110 °C (dec.)"
  },
  {
    "compound": "CCOc1cccc2c1O[C@@H](CN1C3CCC1CC(O)(c1ccc4ccccc4c1)C3)CO2 (some centres unmarked) (as salt: oxalate)",
    "melting point": "126 to 129 °C"
  },
  {
    "compound": "COc1cccc2c1O[C@@H](CN1C3CCC1CC(O)(c1cccc(C(F)(F)F)c1)C3)CO2 (some centres unmarked)",
    "melting point": "104 to 107 °C"
  }
]

Each compound below has a recorded value; state its melting point.
1. COc1cccc2c1O[C@@H](CN1C3CCC1CC(O)(c1ccc4ccccc4c1)C3)CO2 (some centres unmarked)
2. COc1cccc2c1O[C@@H](CN1C3CCC1CC(O)(c1ccccc1)C3)CO2 (some centres unmarked)

(A)
["129 to 132 °C", "113 to 115 °C"]

----------
Molecular target: human 5-HT1A receptor (Homo sapiens)
Construct: expressed in transfected cells; membranes
Sequence (P08908 whole entry): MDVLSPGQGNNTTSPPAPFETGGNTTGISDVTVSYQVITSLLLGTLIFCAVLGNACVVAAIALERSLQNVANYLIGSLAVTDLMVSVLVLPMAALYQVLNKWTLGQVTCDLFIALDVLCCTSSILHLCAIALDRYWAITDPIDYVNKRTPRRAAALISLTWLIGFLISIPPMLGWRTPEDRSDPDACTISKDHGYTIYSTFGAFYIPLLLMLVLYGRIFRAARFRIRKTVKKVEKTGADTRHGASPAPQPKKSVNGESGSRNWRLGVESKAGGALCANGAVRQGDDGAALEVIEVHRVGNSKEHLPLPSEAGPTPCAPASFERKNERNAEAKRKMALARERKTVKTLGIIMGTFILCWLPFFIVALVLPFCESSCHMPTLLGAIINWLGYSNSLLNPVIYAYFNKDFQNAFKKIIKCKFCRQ
Assay: HC 5-HT1A affinity (radioligand binding, h5-HT1A.CHO cell membranes)
Settings: n=2; membranes of CHO cells expressing human 5-HT1A; read-out: HC 5-HT1A affinity Ki
reported-endpoint: pKi
Numbers only, as −log10 of the molar value.

Some compounds with recorded pKi:
[
  {
    "compound": "CCOc1cccc2c1O[C@@H](CN1C3CCC1CC(O)(c1ccccn1)C3)CO2 (stereo partly drawn)",
    "reported-endpoint": "pKi",
    "numeric-result": 7.21
  },
  {
    "compound": "CCOc1cccc2c1O[C@@H](CN1C3CCC1CC(O)(c1ccc4ccccc4c1)C3)CO2 (stereo partly drawn)",
    "reported-endpoint": "pKi",
    "numeric-result": 8.23
  },
  {
    "compound": "CCOc1cccc2c1O[C@@H](CN1C3CCC1CC(O)(c1ccccc1)C3)CO2 (stereo partly drawn)",
    "reported-endpoint": "pKi",
    "numeric-result": 8.51
  },
  {
    "compound": "COc1cccc2c1O[C@@H](CN1C3CCC1CC(O)(c1csc4ccccc14)C3)CO2 (stereo partly drawn)",
    "reported-endpoint": "pKi",
    "numeric-result": 8.80
  },
  {
    "compound": "COc1ccccc1C1(O)CC2CCC(C1)N2C[C@H]1COc2cccc(OC)c2O1 (stereo partly drawn)",
    "reported-endpoint": "pKi",
    "numeric-result": 7.41
  }
]

Each compound below has a recorded value; state its pKi.
1. COc1cccc2c1O[C@@H](CN1C3CCC1CC(O)(c1ccccn1)C3)CO2 (stereo partly drawn)
2. COc1cccc2c1O[C@@H](CN1C3CCC1CC(O)(c1cccc(C(F)(F)F)c1)C3)CO2 (stereo partly drawn)
3. CCOc1cccc2c1O[C@@H](CN1C3CCC1CC(O)(c1cccc(C(F)(F)F)c1)C3)CO2 (stereo partly drawn)
4. CCOc1cccc2c1O[C@@H](CN1C3CCC1CC(O)(c1csc4ccccc14)C3)CO2 (stereo partly drawn)

(A)
1. 7.34
2. 9.48
3. 8.54
4. 7.78
